System: Fusarium oxysporum
Test: Fungitoxicity against Fusarium oxysporum assessed as inhibition of mycelia growth at 28 +/- 1 degC at 10 ug/mL for 96 hr by poisoned food technique
Format: functional
Endpoint Label: inhibition at 10 µg/mL (%)
Numbers only, in %.

Please review the following examples before continuing.
COc1ccc([Se](=O)(=O)c2ncn([C@H]3C[C@H](O)[C@@H](CO)O3)n2)cc1: 65
CC(=O)OC[C@H]1O[C@@H](n2cnc([Se](=O)(=O)c3ccc(C)cc3)n2)[C@H](OC(C)=O)[C@@H]1OC(C)=O: 17
COC1=CC(=O)C[C@@H](C)[C@]12Oc1c(Cl)c(OC)cc(OC)c1C2=O: 91

Q) # get_value(readout= inhibition at 10 µg/mL, system= Fusarium oxysporum) for CC(=O)OC[C@H]1O[C@@H](n2cnc([Se](=O)(=O)c3ccccc3)n2)C[C@@H]1OC(C)=O
A) 25

###

Tested on: Fusarium oxysporum
Experiment: Fungitoxicity against Fusarium oxysporum assessed as inhibition of mycelia growth at 28 +/- 1 degC at 10 ug/mL for 96 hr by poisoned food technique
Format: functional
Use Y when the recorded inhibition at 10 µg/mL is no lower than 40%; use N when it is lower.

Q) Quick check: does Cc1ccc([Se](=O)(=O)c2ncn([C@H]3C[C@H](O)[C@@H](CO)O3)n2)cc1 have inhibition at 10 µg/mL greater than or equal to 40%?
A) Y

Q) Here is the next molecule: CC(=O)OC[C@H]1O[C@@H](n2cnc([Se](=O)(=O)c3ccc(Cl)cc3)n2)[C@H](OC(C)=O)[C@@H]1OC(C)=O
A) N

Q) Here is the next molecule: CC(=O)OC[C@H]1O[C@@H](n2cnc([Se](=O)(=O)c3ccc([N+](=O)[O-])cc3)n2)C[C@@H]1OC(C)=O
A) N

Q) Here is the next molecule: CC(=O)OC[C@H]1O[C@@H](n2cnc([Se](=O)(=O)c3ccccc3)n2)[C@H](OC(C)=O)[C@@H]1OC(C)=O
A) N

Q) Here is the next molecule: Cc1ccc([Se](=O)(=O)c2ncn([C@@H]3O[C@H](CO)[C@@H](O)[C@H]3O)n2)cc1
A) Y

Q) Here is the next molecule: COc1ccc([Se](=O)(=O)c2ncn([C@@H]3O[C@H](COC(C)=O)[C@@H](OC(C)=O)[C@H]3OC(C)=O)n2)cc1
A) N

Q) Here is the next molecule: O=[Se](=O)(c1ccc(Cl)cc1)c1ncn([C@H]2C[C@H](O)[C@@H](CO)O2)n1
A) N

Q) Here is the next molecule: COc1ccc([Se](=O)(=O)c2ncn([C@@H]3O[C@H](CO)[C@@H](O)[C@H]3O)n2)cc1
A) Y

Q) Here is the next molecule: O=[Se](=O)(c1ccc(Cl)cc1)c1ncn([C@@H]2O[C@H](CO)[C@@H](O)[C@H]2O)n1
A) Y

###

Test system: Penicillium citrinum
Test: Fungitoxicity against Penicillium citrinum assessed as inhibition of mycelia growth at 28 +/- 1 degC at 100 ug/mL for 96 hr by poisoned food technique
Assay type: functional
Endpoint Label: inhibition at 100 µg/mL (%)
Answers are plain numbers, in %.

Hi, could you look up inhibition at 100 µg/mL for each item in my list?
1. CC(=O)OC[C@H]1O[C@@H](n2cnc([Se](=O)(=O)c3ccccc3)n2)[C@H](OC(C)=O)[C@@H]1OC(C)=O
2. COc1ccc([Se](=O)(=O)c2ncn([C@H]3C[C@H](O)[C@@H](CO)O3)n2)cc1
3. Cc1ccc([Se](=O)(=O)c2ncn([C@@H]3O[C@H](CO)[C@@H](O)[C@H]3O)n2)cc1
4. COc1ccc([Se](=O)(=O)c2ncn([C@@H]3O[C@H](CO)[C@@H](O)[C@H]3O)n2)cc1
5. CC(=O)OC[C@H]1O[C@@H](n2cnc([Se](=O)(=O)c3ccc(Cl)cc3)n2)C[C@@H]1OC(C)=O
6. O=[N+]([O-])c1ccc([Se](=O)(=O)c2ncn([C@@H]3O[C@H](CO)[C@@H](O)[C@H]3O)n2)cc1
7. Cc1ccc([Se](=O)(=O)c2ncn([C@H]3C[C@H](O)[C@@H](CO)O3)n2)cc1
8. O=[N+]([O-])c1ccc([Se](=O)(=O)c2ncn([C@H]3C[C@H](O)[C@@H](CO)O3)n2)cc1

A)
30
48
78
49
35
59
74
63

Hi, could you look up inhibition at 100 µg/mL for each item in my list?
1. O=[Se](=O)(c1ccc(Cl)cc1)c1ncn([C@@H]2O[C@H](CO)[C@@H](O)[C@H]2O)n1
2. O=[Se](=O)(c1ccccc1)c1ncn([C@H]2C[C@H](O)[C@@H](CO)O2)n1

A)
1. 65
2. 74

###

Please respond with reported inhibition at 100 µg/mL for every item in the list.
Tested on: Penicillium citrinum
Test: Fungitoxicity against Penicillium citrinum assessed as inhibition of mycelia growth at 28 +/- 1 degC at 100 ug/mL for 96 hr by poisoned food technique
Type: functional

Please review the following examples before continuing.
COc1ccc([Se](=O)(=O)c2ncn([C@H]3C[C@H](OC(C)=O)[C@@H](COC(C)=O)O3)n2)cc1: 35%
O=[Se](=O)(c1ccccc1)c1ncn([C@@H]2O[C@H](CO)[C@@H](O)[C@H]2O)n1: 42%
O=[Se](=O)(c1ccc(Cl)cc1)c1ncn([C@H]2C[C@H](O)[C@@H](CO)O2)n1: 65%

Q) Entry under review: COC1=CC(=O)C[C@@H](C)[C@]12Oc1c(Cl)c(OC)cc(OC)c1C2=O . Reported inhibition at 100 µg/mL?
A) 94%

###

System: Penicillium citrinum
Experiment: Fungitoxicity against Penicillium citrinum assessed as inhibition of mycelia growth at 28 +/- 1 degC at 100 ug/mL for 96 hr by poisoned food technique
Type: functional
Use Met when the recorded inhibition at 100 µg/mL is no lower than 40%; use Not met when it is lower.

Use the examples below as a reference point.
CC(=O)OC[C@H]1O[C@@H](n2cnc([Se](=O)(=O)c3ccc([N+](=O)[O-])cc3)n2)C[C@@H]1OC(C)=O: Not met
CC(=O)OC[C@H]1O[C@@H](n2cnc([Se](=O)(=O)c3ccc(C)cc3)n2)C[C@@H]1OC(C)=O: Not met
CC(=O)OC[C@H]1O[C@@H](n2cnc([Se](=O)(=O)c3ccc(C)cc3)n2)[C@H](OC(C)=O)[C@@H]1OC(C)=O: Met
CC(=O)OC[C@H]1O[C@@H](n2cnc([Se](=O)(=O)c3ccccc3)n2)C[C@@H]1OC(C)=O: Not met

Next, consider the following molecule.
Q) Quick check: does COc1ccc([Se](=O)(=O)c2ncn([C@@H]3O[C@H](COC(C)=O)[C@@H](OC(C)=O)[C@H]3OC(C)=O)n2)cc1 have inhibition at 100 µg/mL greater than or equal to 40%?
A) Not met

###

Tested on: Fusarium oxysporum
Assay: Fungitoxicity against Fusarium oxysporum assessed as inhibition of mycelia growth at 28 +/- 1 degC at 10 ug/mL for 96 hr by poisoned food technique
Assay type: functional
Use 1 when the recorded inhibition at 10 µg/mL is no lower than 30%; use -1 when it is lower.

Use the examples below as a reference point.
O=[Se](=O)(c1ccccc1)c1ncn([C@@H]2O[C@H](CO)[C@@H](O)[C@H]2O)n1: 1
CC(=O)OC[C@H]1O[C@@H](n2cnc([Se](=O)(=O)c3ccc(C)cc3)n2)C[C@@H]1OC(C)=O: -1

Q) Quick check: does O=[N+]([O-])c1ccc([Se](=O)(=O)c2ncn([C@H]3C[C@H](O)[C@@H](CO)O3)n2)cc1 have inhibition at 10 µg/mL greater than or equal to 30%?
A) 1

Q) Here is the next compound: O=[Se](=O)(c1ccccc1)c1ncn([C@H]2C[C@H](O)[C@@H](CO)O2)n1
A) 1

Q) Here is the next compound: O=[N+]([O-])c1ccc([Se](=O)(=O)c2ncn([C@@H]3O[C@H](CO)[C@@H](O)[C@H]3O)n2)cc1
A) 1

Q) Here is the next compound: COc1ccc([Se](=O)(=O)c2ncn([C@H]3C[C@H](OC(C)=O)[C@@H](COC(C)=O)O3)n2)cc1
A) -1

Q) Here is the next compound: CC(=O)OC[C@H]1O[C@@H](n2cnc([Se](=O)(=O)c3ccc(Cl)cc3)n2)C[C@@H]1OC(C)=O
A) -1
